Attribution: patent US8791132B2

# systemTested: rat adrenergic α1B receptor (Rattus norvegicus)
# Construct: rat adrenergic α1B receptor obtained from Wistar Rat liver; from tissue; host or cells: Wistar rat liver
# Sequence (P15823 1-515): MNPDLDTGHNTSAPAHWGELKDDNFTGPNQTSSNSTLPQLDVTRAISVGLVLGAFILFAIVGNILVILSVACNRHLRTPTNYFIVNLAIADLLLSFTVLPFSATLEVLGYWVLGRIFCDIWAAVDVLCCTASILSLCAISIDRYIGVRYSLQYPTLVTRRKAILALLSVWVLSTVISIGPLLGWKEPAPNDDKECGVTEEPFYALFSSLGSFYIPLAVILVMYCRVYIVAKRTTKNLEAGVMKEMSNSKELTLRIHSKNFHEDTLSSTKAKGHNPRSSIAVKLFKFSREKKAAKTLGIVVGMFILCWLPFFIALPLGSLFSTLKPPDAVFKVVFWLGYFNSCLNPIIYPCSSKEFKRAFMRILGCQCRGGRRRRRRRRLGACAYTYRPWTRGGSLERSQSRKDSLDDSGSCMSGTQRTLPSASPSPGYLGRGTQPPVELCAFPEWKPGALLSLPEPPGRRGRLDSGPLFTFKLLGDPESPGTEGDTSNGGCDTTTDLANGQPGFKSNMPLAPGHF
# assayDetails: Radioligand binding, adrenergic α1B ([3H]Prazosin)
# condition: 0.1 μM compound; read-out: Percentage inhibition of ligand binding, Adrenergic α1B
Threshold rule: inhibition at 0.1 µM greater than or equal to 80% is Criterion met; below that, Criterion not met.

Q) Does the molecule Cc1cnc2c(c1)c1c(n2CCc2ccc(F)cc2)CCN2CCCC12 (stereo not shown) [compound 336] have recorded inhibition at 0.1 µM that is 80% or more?
A) Criterion met

Q) Quick check, inhibition at 0.1 µM >= 80%? Cc1csc(C2=C(n3c4c(c5cc(C)ccc53)CN(C)CC4)CCC2)c1 [compound 304]
A) Criterion not met

Q) Please tell me: is the molecule C/C(=C\n1c2c(c3cc(C)cc(C)c31)CN(C)CC2)c1cccc(S(C)(=O)=O)c1 [compound 310] at or over 80% in terms of inhibition at 0.1 µM?
A) Criterion not met

Q) Could you verify whether the entry Cc1ccc2c(c1)c1c(n2CC(O)(c2ccccc2)c2ccccc2)CCN(C)C1 [compound 263] shows inhibition at 0.1 µM of no less than 80%?
A) Criterion not met

Q) Would you say Cc1ccc2c(c1)c1c(n2CNc2ccccc2)CCN(C)C1 [compound 324] shows inhibition at 0.1 µM at minimum 80%?
A) Criterion not met

Q) Hi, just wondering whether Cc1ccc2c(c1)c1c(n2C2=C(c3cccnc3)CCC2)CCN(C)C1 [compound 300] shows inhibition at 0.1 µM of 80% or higher.
A) Criterion not met

Q) Tell me whether inhibition at 0.1 µM is at least 80% here: COc1ccc(C(C)(O)Cn2c3c(c4cc(C)ccc42)CN(C)CC3)cc1 (stereo not shown) [254a]
A) Criterion not met

Q) Please check the record C/C(=C/n1c2c(c3cc(C)ccc31)CN(C)CC2)c1cc(C)cs1 [compound 291] and state if its inhibition at 0.1 µM is at or above 80%.
A) Criterion met

Q) # bool: inhibition at 0.1 µM of C/C(=C/n1c2c(c3cc(C)ccc31)CN(C)CC2)c1ccnn1C [compound 273] >= 80%
A) Criterion met

Q) Could you tell me if the measured inhibition at 0.1 µM of Cc1ccc2c(c1)c1c(n2CC(O)c2ccncc2)C(C)N(C)CC1 (stereo not shown) [II-73] reaches 80% or more?
A) Criterion not met

Q) Answer whether inhibition at 0.1 µM of CC(O)(Cn1c2c(c3cc(Cl)ccc31)CNCC2)c1ccncc1 (stereo not shown) [II-62] is greater than or equal to 80%.
A) Criterion not met

Q) Say whether CN1CCc2c(n(CC(O)c3ccccc3F)c3ccc(Cl)cc23)C1 (stereo not shown) [II-48] shows inhibition at 0.1 µM of 80% or more.
A) Criterion not met

Q) Would you say COc1cc(/C(C)=C/n2c3c(c4cc(C)ccc42)CN(C)CC3)ccn1 [compound 269] shows inhibition at 0.1 µM at minimum 80%?
A) Criterion not met

Q) Check if inhibition at 0.1 µM >= 80% (inclusive). Item: Cc1ccc2c(c1)c1c(n2C#Cc2cccc3cnccc23)CCN(C)C1 [compound 313]
A) Criterion met

Q) # bool: inhibition at 0.1 µM of C/C(=C/n1c2c(c3cc(C)ccc31)CN(C)CC2)c1ccc(F)nc1 [compound 276] >= 80%
A) Criterion met

Q) Could you verify whether the entry Cc1ccc2c(c1)c1c(n2CCc2csc3ccccc23)CCN(C)C1 [compound 294] shows inhibition at 0.1 µM of no less than 80%?
A) Criterion not met

Q) Please check the record Cc1ccc2c(c1)c1c(n2CCc2cccc(N(C)C)c2)CCN(C)C1 [compound 298] and state if its inhibition at 0.1 µM is at or above 80%.
A) Criterion not met
